What GI50 was measured for each of the following?
Tested on: LOX IMVI melanoma
testDescription: NCI tumour cell line growth inhibition, 48 h
*1 amine or outer side, *2 acyl side, *3 side chain or, on linkers, in order; H or OH if unused. Where a SMILES comes first, the peptide text is derived from it. Bridges are numbered along the chain shown (N, C = ends). [ ]: non-standard residue; d: D form. The star is where a group is joined. Phe(3-Me) = Cc1cccc(C[C@H](N)C(=O)O)c1; NH(4-Cl-2-F-phenyl) = Fc1cc(Cl)ccc1N*; Pro(4R-Me) = C[C@H]1CN[C@H](C(=O)O)C1; Hyp = O=C(O)[C@@H]1C[C@@H](O)CN1; aThr = C[C@H](O)[C@H](N)C(=O)O; Pip = O=C(O)[C@@H]1CCCCN1; CO = O=C([*:1])[*:2]

Look up GI50: CCC(C)/C=C(C)/C=C/C(=O)c1c(O)c(-c2ccc(O)cc2)c[nH]c1=O (configuration not stated)
3.49 µM

Look up GI50: "Cc1cc(-c2nc3ccc(O)cc3s2)ccc1N"
> 100 µM

Look up GI50: "CC[O-].CC[O-].O=Nc1ccc2cc([O-])ccc2c1.O=Nc1ccc2cc([O-])ccc2c1.[Ti+4]"
1.66 µM

Look up GI50: "O=C(O)c1ccc(NS(=O)(=O)c2cccc3cccnc23)cc1"
> 100 µM

Look up GI50: "O=[N+]([O-])c1cc(Br)cc2c1[nH]c1ccc(Br)cc12"
4.9 µM

Look up GI50: "Cc1nn2c(/C=C3/C(=O)Nc4ccc(Cl)cc43)c(-c3ccccc3)nc2s1"
3.52 µM

Look up GI50: Cc1cccc(C[C@H](NC(=O)Nc2ccc(Cl)cc2F)C(=O)N[C@@H]2C(=O)N3C[C@H](O)C[C@H]3C(=O)N3CCCC[C@H]3C(=O)N[C@@H](C)C(=O)N3C[C@H](C)C[C@H]3C(=O)O[C@H]2C)c1 ({NH(4-Cl-2-F-phenyl)-CO}-[Phe(3-Me)][aThr][Hyp][Pip]A[Pro(4R-Me)]; ester 2-C)
0.67 µM
